# System: TTR
# Protocol Notes: TTR editing in primary human hepatocytes transfected with Spy Cas9 protein (RNP) loaded with dgRNAs (Table 8)
# Assay type: cell-based
# Test Context: dgRNA transfected with Spy Cas9 protein (RNP)
Exercise: for every item that follows, state its recorded Avg % Edit.

Below, 2 sequences whose answers are already recorded.
# Primary Sequence, Avg % Edit
rows = [
    ("ACUGAGGAGGAAUUUGUAGA (tested as dual guide RNA, chemistry not given here) [CR003363]", "27.65%"),
    ("CGGCAAUGGUGUAGCGGCGG (tested as dual guide RNA, chemistry not given here) [CR003376]", "5.00%"),
]

Dear colleague, could you send me Avg % Edit for each of the items below? Thanks.
1. CUCUGCAUGCUCAUGGAAUG (tested as dual guide RNA, chemistry not given here) [CR003369]
2. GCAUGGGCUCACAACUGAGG (tested as dual guide RNA, chemistry not given here) [CR003362]

Solution:
1: 12.98%; 2: 11.65%
